The reported measurements were obtained from patent US6649593B1.

Recorded Relative Activity (comparative cleavage of fluorogenic synthetic peptidyl substrates) by entry
- study_system: purified S1P(187-983) (Cricetulus griseus, UniProt Q9Z2A8)
- Construct: 1.5-5 μg of purified S1P(187-983); made in house; host or cells: SRD-12B cells (CHO-derived) stably transfected with pCMV-S1P(983)-Myc-His (TR-3117, 'S1P(983) cells'); The protein was secreted into serum-free medium and purified on Ni-NTA agarose
- Sequence (Q9Z2A8 187-983): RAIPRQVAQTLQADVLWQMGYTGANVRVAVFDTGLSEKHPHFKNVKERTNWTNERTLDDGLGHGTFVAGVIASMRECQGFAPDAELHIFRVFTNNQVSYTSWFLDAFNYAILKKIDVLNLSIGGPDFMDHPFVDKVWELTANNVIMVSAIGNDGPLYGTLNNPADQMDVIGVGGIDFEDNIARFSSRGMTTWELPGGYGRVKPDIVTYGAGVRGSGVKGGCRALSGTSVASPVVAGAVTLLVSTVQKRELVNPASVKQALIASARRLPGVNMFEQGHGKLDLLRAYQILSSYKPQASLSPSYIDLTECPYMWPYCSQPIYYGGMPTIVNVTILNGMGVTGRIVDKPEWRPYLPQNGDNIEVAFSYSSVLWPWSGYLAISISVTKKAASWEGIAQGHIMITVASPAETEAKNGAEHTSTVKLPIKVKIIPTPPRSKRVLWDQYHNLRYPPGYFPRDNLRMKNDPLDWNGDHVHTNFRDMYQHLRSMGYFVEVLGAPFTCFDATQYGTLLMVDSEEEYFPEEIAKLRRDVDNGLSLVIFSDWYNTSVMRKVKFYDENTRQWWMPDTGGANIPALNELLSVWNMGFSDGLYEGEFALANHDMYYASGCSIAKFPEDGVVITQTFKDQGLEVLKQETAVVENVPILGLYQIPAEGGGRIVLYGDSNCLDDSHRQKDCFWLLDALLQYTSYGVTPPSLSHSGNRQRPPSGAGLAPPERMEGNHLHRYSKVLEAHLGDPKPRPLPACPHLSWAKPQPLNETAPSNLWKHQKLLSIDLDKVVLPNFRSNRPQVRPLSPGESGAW
- Assay type: biochemical, hamster
- study_conditions: cleavage by purified S1P-C(187-983); MCA-peptide 100 μM, pH 8.0, 37° C.
measure_name: Relative Activity (comparative cleavage of fluorogenic synthetic peptidyl substrates)

- substance: "Ac-Val-Phe-Ala-Ser-Leu-Lys-MCA [Ac-VFASLK-MCA, fluorogenic MCA-conjugated peptidyl substrate]"
  recorded_measurement: "<0.1"
- substance: "Ac-Arg-Ser-Val-Leu-MCA [Ac-RSVL-MCA, fluorogenic MCA-conjugated peptidyl substrate]"
  recorded_measurement: "<0.1"
- substance: "Ac-Ser-Gly-Ser-Gly-Arg-Ser-Val-Leu-MCA [Ac-SGSGRSVL-MCA, fluorogenic MCA-conjugated peptidyl substrate]"
  recorded_measurement: "<0.1"
- substance: "Ac-Ser-Gly-Arg-Ser-Val-Leu-MCA [Ac-SGRSVL-MCA, fluorogenic MCA-conjugated peptidyl substrate]"
  recorded_measurement: "<0.1"
- substance: "Boc-Arg-Val-Arg-Arg-MCA [Boc-RVRR-MCA, fluorogenic MCA-conjugated peptidyl substrate]"
  recorded_measurement: "<0.1"
- substance: "Ac-Arg-Ser-Leu-Lys-MCA [Ac-RSLK-MCA, fluorogenic MCA-conjugated peptidyl substrate]"
  recorded_measurement: 0.47
- substance: "Ac-Val-Phe-Arg-Ser-Leu-Lys-MCA [Ac-VFRSLK-MCA, fluorogenic MCA-conjugated peptidyl substrate]"
  recorded_measurement: 1.0
- substance: "Ac-Val-Phe-Arg-Ser-Arg-Arg-MCA [Ac-VFRSRR-MCA, fluorogenic MCA-conjugated peptidyl substrate]"
  recorded_measurement: "<0.1"
